System: Tov-21-G
Experiment: Primary qHTS to identify gynecologic anti-cancer compounds using libraries of approved drugs and bioactive compounds (AID 1345084); note: nearly all actives have a fitted effect of over 55% in size
Conditions: Gynecologic cancer cell panel viability, ATPlite luminescence, 48 h; series mostly up to 57.5 µM
Records with an inconclusive call do not appear. The source made the active and inactive calls. Calls come from the whole dose curve; as a rule, active = well fitted cell-killing curve with a large enough effect; inconclusive = small, poorly fitted or top-dose-only effect, or effect the other way; inactive = flat fitted curve, though single readings scatter. Where a SMILES comes first, the peptide text is derived from it. [ ]: non-standard residue; d: D form.
Measurement Type: activity change, negative = cytotoxicity

Previously resolved entries follow.
Molecule	activity change, negative = cytotoxicity
CC1CCC2C(C)(C)C(O)CCC2(C)C12Cc1c(O)cc3c(c1O2)CN=C3N (centres undefined)	inactive
Cc1coc2c1CC1OC1(C)CCC1OC1(C)C2 (centres undefined)	inactive
CC(=O)N[C@H](Cc1ccc(O)cc1)C(=O)N[C@H](CCCN=C(N)N)C(=O)N[C@H](Cc1ccccc1)C(N)=O (Ac-[dY]-[dR]-[dF]-NH2)	inactive
CC1(C)CCC(C)(C)c2cc3c(cc21)Sc1ccccc1N=C3c1ccc(C(=O)O)cc1	inactive
NC1CCC(N[C@@H]2C[C@H]2c2ccccc2)CC1 (some centres undefined)	inactive

Req: Need activity change, negative = cytotoxicity of COC(=O)C1C(c2ccc(O)cc2)C(C(=O)OC)C1c1ccc(O)cc1 (centres undefined) , thanks.
Resp: inactive

Req: Query (molecule): CO[C@@H]1CC[C@H](OC[C@]2(COC(=O)c3ccc(C)[nH]3)[C@H](OC(C)=O)CC[C@@]3(C)[C@@H]4CC=C(C)[C@@H](C5=C(O)C(=O)OC5O)[C@]4(C)CC[C@@H]32)O[C@H]1C (some centres undefined) ; field requested: activity change, negative = cytotoxicity
Resp: inactive
